system-tested: Active Human ERK2 (hERK2) (Homo sapiens (Human), UniProt P28482)
Sequence (P28482 whole entry): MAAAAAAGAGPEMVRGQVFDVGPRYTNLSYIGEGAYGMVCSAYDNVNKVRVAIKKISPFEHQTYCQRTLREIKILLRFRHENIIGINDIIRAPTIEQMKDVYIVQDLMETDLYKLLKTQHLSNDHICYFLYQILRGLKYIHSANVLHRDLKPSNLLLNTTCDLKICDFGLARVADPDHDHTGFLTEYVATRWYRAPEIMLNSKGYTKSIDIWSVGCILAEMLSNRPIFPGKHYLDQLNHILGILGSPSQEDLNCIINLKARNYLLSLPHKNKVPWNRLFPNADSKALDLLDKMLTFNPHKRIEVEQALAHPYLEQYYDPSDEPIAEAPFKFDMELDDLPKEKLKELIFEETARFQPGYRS
run-description: Active Human ERK2 (hERK2) Activity Assay (IMAP-FP)
Type: biochemical
condition-summary: phosphorylated active hERK2, 30 μM ATP; average; read-out: ERK 2 Human average IC50
Provide the recorded IC50 for the entries that follow.
One number for each entry, in nM.

// input: 2 compounds below; output: IC50 for each
1. COCC(NC(=O)Nc1cc2[nH]nc(-c3ccnc(C)c3)c2cn1)c1ccc(C(F)(F)F)cn1 (stereo not shown) [Example 240]
2. Cc1ccc(C(C)NC(=O)Nc2cc3[nH]nc(-c4ccnc(C)c4)c3cn2)nc1 (stereo not shown) [Example 339]

1. 24.2
2. 6.08

// input: 2 compounds below; output: IC50 for each
1. C[C@@H](NC(=O)Nc1cc2[nH]nc(-c3ccc4nn(C)cc4c3)c2cn1)c1ccc(F)cc1 [Example 63]
2. Cc1cc(-c2n[nH]c3cc(NC(=O)N[C@H](c4ccc(F)cc4)C(F)(F)F)ncc23)ccn1 [Example 279]

1: 0.405; 2: 113

// data source = patent US9023865B2
